biological target: Cytochrome P450 3A4 (Homo sapiens) (UniProt P08684); assay: Cytochrome panel assay with activity outcomes; details: recombinant CYP, pro-luciferin dealkylation, luminescence, p450-cyp3a4; series mostly up to 57.1 µM
Sequence (P08684 whole entry, looked up): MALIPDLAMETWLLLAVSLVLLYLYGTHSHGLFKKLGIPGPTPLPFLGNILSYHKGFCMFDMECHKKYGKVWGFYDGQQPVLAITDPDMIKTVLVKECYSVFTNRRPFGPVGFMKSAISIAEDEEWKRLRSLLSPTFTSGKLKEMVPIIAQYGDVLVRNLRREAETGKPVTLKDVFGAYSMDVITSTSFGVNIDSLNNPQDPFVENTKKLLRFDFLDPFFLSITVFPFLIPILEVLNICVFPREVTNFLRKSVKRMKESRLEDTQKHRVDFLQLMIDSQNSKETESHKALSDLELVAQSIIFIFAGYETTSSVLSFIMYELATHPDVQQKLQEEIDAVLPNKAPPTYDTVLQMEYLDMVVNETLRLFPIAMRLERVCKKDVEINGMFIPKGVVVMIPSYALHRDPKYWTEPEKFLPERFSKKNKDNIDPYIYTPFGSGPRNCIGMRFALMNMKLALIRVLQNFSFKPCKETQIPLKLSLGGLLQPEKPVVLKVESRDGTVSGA
Out of some 16,000 compounds screened, about 5,100 (32%) were called active. Inconclusive results (about 25%) are left out. The call rests on the fitted dose curve; in most records, active means well fitted curve in the direction sought with a large enough effect; inconclusive means small, poorly fitted or top-dose-only effect, or effect the other way; inactive means no such curve, though single readings can be large or run the other way. Some of the results follow.
Choose one outcome from this list and give only that: T = active, F = inactive

Known results for compounds:
compound | cat
CCCc1c(OCCCOc2ccc(OCC(=O)O)cc2)ccc(CC=O)c1O | F
CCC(=O)[C@@]1(C)[C@H](C)C[C@@H]2[C@@H]3CCC4=CC(=O)C=C[C@@]4(C)[C@H]3[C@H](O)C[C@]21C | F
CCCCNC(=S)NNC(=O)CCn1nc(C)c(Br)c1C | T
CCOC(=O)C(C)Sc1nnc(CNC(=O)c2ccc(OC)cc2)n1C1CCCCC1 (stereo unspecified) | T
CCCNC(=O)OC[C@H]1O[C@@H](CCO/N=C\[C@@H](NS(=O)(=O)c2ccc(C)cc2)[C@H](C)/C=C\CC(=O)OC)C=C[C@@H]1Oc1ccc(OC)cc1 | T

In: // param item: `COc1cc(-c2nnc(SCC(=O)Nc3ccc4c(c3)OCCO4)o2)cc(OC)c1OC` ; yields the recorded call
Out: T

In: // param item: `CC(=O)OCC1=C(C(=O)O)N2C(=O)[C@@H](NC(=O)Cc3cccs3)[C@@H]2SC1` ; yields the recorded call
Out: F
